Reference source for all entries: patent US20040253665A1

- Test system: enzyme (SP-Sepharose HP fraction) derived from Sphingobacterium sp. strain FERM BP-8124
- Format: biochemical
- EXPERIMENTAL_SETUP: Table 15-1; carboxy component 100 mM, amine component 150 mM, 0.33 units enzyme, pH 9.0, 25° C., 1.5 hours
Non-standard residues stand in square brackets, D forms with d. Residues, ends and D or L forms follow the SMILES beside them.
Produced peptide of 40 mM or higher: criterion met. Under 40 mM: criterion not met.

Consider the following illustrative entries.
>>> print(df.to_string())
                                   compound              group
0    C[C@H](N)C(=O)N[C@@H](Cc1ccccc1)C(=O)O      criterion met
1  CC[C@H](C)[C@H](NC(=O)[C@H](C)N)C(=O)O [L-Ala-L-Ile] (H-Ala-Ile-OH)  criterion not met
2  C[C@H](N)C(=O)N[C@@H](C)C(=O)O [L-Ala-L-Ala] (H-Ala-Ala-OH)  criterion not met
3  C[C@H](N)C(=O)N[C@@H](CC(=O)O)C(=O)O [L-Ala-L-Asp] (H-Ala-Asp-OH)  criterion not met
4  C[C@H](N)C(=O)N[C@H](CO)C(=O)O [L-Ala-D-Ser] (H-Ala-[dS]-OH)  criterion not met
5  CC(C)C[C@H](NC(=O)[C@H](C)N)C(=O)O [L-Ala-L-Leu] (H-Ala-Leu-OH)  criterion not met

[in] Is it the case that C[C@H](N)C(=O)N[C@@H](CCCCN)C(=O)O [L-Ala-L-Lys] (H-Ala-Lys-OH) has Produced peptide reaching or exceeding 40 mM?
[out] criterion met

[in] Next: CC(C)[C@H](NC(=O)[C@H](C)N)C(=O)O [L-Ala-L-Val] (H-Ala-Val-OH)
[out] criterion not met

---

- Tested on: Empedobacter brevis strain FERM BP-8113 microbial cells
- ASSAY_REMARKS: Production of peptide using microbial cells of Empedobacter brevis
- Type: cell-based
- EXPERIMENTAL_SETUP: microbial cell suspension 100 g/L mixed 1:1 with 200 mM carboxy component and 400 mM amino acid, pH 9.0, 10 mM EDTA, 18° C., 2 hours
Residues, ends and D or L forms follow the SMILES beside them.
Below: a set of entries, each annotated with reported Produced peptide.
Reply with the number and its unit after it.

                                   compound   result
0  C[C@H](N)C(=O)N[C@@H](Cc1cnc[nH]1)C(=O)O [L-Ala-L-His] (H-Ala-His-OH)  52.1 mM
1  CSCC[C@H](N)C(=O)N[C@@H](Cc1ccccc1)C(=O)O [L-Met-L-Phe] (H-Met-Phe-OH)  28.5 mM
2  C[C@H](N)C(=O)N[C@@H](CCC(N)=O)C(=O)O [L-Ala-L-Gln, L-alanyl-L-glutamine] (H-Ala-Gln-OH)  68.0 mM

Now look at this one.
[in] Name the recorded Produced peptide for C[C@H](N)C(=O)N[C@@H](CO)C(=O)O [L-Ala-L-Ser] (H-Ala-Ser-OH) .
[out] 51.3 mM

---

Each entry below carries its reported Produced peptide.
- System: peptide-producing enzyme (Mono S fraction) from Empedobacter brevis strain FERM BP-8113
- ASSAY_REMARKS: Enzyme substrate specificity (1)-(10), (13), (14)
- Format: biochemical
- EXPERIMENTAL_SETUP: carboxy component 100 mM, amine component 150 mM, 0.1 unit enzyme, 25° C., reaction time 2 hr
Residues, ends and D or L forms follow the SMILES beside them. *: point of attachment. Boc = CC(C)(C)OC(=O)*; OtBu = CC(C)(C)O*; tBu = CC(C)(C)*
Numeric only. Scale: mM

// worked examples, Produced peptide included
In [3]: df
Out[3]:
                                   compound  unit_of_measurement  result
0  CC(C)(C)OC(=O)C[C@H](N)C(=O)N[C@@H](CCC(N)=O)C(=O)O [H-Asp (OtBu)-Gln-OH] (H-Asp(OtBu)-Gln-OH)                   mM     0.9
1  C[C@H](N)C(=O)N[C@@H](CCCCNC(=O)OC(C)(C)C)C(=O)O [H-Ala-Lys(Boc)-OH] (H-Ala-Lys(Boc)-OH)                   mM    51.0
2  C[C@H](N)C(=O)N[C@@H](COC(C)(C)C)C(=O)O [H-Ala-Ser(tBu)-OH] (H-Ala-Ser(tBu)-OH)                   mM    48.8

We now examine a further compound.
[in] Return reported Produced peptide; argument: C[C@H](N)C(=O)N[C@@H](CC(=O)OC(C)(C)C)C(=O)O [H-Ala-Asp(OtBu)-OH] (H-Ala-Asp(OtBu)-OH)
[out] 62.6
